Numbers sourced from BindingDB's records for doi:10.3109/14756366.2011.650691.

# measured.target: Spermine oxidase (Homo sapiens)
# Sequence (Q9NWM0 whole entry): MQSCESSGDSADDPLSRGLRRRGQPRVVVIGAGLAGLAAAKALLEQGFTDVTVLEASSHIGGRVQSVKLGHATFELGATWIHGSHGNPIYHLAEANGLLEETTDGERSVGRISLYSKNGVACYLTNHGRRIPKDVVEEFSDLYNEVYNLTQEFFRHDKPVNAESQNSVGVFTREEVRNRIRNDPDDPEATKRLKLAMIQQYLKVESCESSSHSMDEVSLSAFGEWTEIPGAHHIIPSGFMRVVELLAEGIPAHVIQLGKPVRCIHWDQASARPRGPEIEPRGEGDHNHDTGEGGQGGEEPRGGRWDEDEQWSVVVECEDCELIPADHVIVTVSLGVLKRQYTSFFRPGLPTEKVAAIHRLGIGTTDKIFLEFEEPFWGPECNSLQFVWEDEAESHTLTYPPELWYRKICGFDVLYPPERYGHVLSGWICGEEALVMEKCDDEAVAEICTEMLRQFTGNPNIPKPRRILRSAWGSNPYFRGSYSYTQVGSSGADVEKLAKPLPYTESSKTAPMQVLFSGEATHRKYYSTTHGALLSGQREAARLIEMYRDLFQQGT
readout.label: Ki

- [H]/N=C(\N/C(=N/[H])NCCCCCCNC(=N)NC(=N)Nc1ccc(Cl)cc1)Nc1ccc(Cl)cc1 [Chlorhexidine (1)]: 0.55 µM
